# assayed system: UniProtKB P51639
# Sequence (P51639 1-887): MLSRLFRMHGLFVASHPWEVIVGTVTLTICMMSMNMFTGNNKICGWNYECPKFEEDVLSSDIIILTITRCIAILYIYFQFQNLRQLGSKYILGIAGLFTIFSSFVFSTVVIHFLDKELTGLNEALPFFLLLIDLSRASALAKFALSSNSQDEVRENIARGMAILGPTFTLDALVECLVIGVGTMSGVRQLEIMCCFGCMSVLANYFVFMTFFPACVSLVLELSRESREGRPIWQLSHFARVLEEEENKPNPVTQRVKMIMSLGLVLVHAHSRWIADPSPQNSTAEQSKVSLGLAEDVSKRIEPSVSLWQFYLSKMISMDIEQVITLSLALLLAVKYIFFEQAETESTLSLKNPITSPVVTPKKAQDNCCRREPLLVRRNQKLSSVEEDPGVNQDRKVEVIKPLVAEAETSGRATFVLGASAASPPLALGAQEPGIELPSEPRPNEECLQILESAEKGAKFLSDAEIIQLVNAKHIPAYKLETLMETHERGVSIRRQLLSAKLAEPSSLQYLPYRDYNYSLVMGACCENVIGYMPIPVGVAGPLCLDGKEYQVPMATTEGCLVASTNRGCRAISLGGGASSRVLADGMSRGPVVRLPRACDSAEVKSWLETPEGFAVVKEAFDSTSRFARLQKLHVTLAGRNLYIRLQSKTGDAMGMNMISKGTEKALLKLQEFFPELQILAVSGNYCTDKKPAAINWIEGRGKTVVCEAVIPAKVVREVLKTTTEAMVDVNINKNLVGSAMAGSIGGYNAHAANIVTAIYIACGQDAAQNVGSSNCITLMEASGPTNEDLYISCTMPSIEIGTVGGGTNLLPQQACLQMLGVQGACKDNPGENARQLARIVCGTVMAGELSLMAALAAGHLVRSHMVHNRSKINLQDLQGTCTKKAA
quantity kind: IC50 (nM)

[1] CC[C@H](C)C(=O)O[C@H]1CCC=C2C=C[C@H](C)[C@H](CC[C@@H]3C[C@@H](O)CC(=O)O3)[C@H]21 [Compound 5, Compactin, reference compound]
[2] CC(C)c1c(Br)c(Br)c(-c2ccc(F)cc2)n1CC[C@H]1C[C@H](O)CC(=O)O1 (relative stereo)
[3] CC(C)c1ccc(-c2ccc(F)cc2)n1CC[C@H]1C[C@H](O)CC(=O)O1 (relative stereo)
Hey, quick one: sort these by IC50, largest value first please. Please list each label once, in the requested order.
3, 1, 2
